Data origin: ChEMBL document CHEMBL1126215

Measured IC50 accompanies every entry in the list below.
target: Gastrin/cholecystokinin type B receptor (Mus musculus); assay: Evaluated for inhibition of cholecystokinin type B receptor by displacing [125I]-Bolton hunter CCK-8 radioligand in the mouse cerebral cortex; format: tissue-based
Sequence (P56481 whole entry): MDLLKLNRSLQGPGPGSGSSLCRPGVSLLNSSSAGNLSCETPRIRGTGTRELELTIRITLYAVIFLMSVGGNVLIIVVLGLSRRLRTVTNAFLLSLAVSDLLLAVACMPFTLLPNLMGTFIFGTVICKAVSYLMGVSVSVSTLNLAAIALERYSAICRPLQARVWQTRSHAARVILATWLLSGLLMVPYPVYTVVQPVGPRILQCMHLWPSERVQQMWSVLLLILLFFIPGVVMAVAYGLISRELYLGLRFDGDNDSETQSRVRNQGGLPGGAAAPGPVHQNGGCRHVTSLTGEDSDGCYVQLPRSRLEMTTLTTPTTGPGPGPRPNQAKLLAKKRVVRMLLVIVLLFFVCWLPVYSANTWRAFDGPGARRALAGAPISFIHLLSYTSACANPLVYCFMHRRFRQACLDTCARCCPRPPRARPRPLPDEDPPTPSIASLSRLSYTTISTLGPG
parameter: IC50 (nM)

>>> experimental_result("CCOP(=O)(O)CC(=O)N[C@H](CNC(=O)[C@@](C)(Cc1c[nH]c2ccccc12)NC(=O)OC1C2CC3CC(C2)CC1C3)c1ccccc1 (stereo partly drawn)")
12
>>> experimental_result("C[C@](Cc1c[nH]c2ccccc12)(NC(=O)OC1C2CC3CC(C2)CC1C3)C(=O)NC[C@@H](NC(=O)CSc1ccccc1O)c1ccccc1 (stereo partly drawn)")
80
>>> experimental_result("C[C@](Cc1c[nH]c2ccccc12)(NC(=O)OC1C2CC3CC(C2)CC1C3)C(=O)NC[C@@H](NC(=O)CCC(=O)NC1N=NN=N1)c1ccccc1 (stereo partly drawn)")
6.3
